B1: peptide HD2 (from tick evasin EVA4) / CCL22 (biotinylated, synthetic) (parent)
chain 1: EEDDYTAYAPLTCYFT
chain 2: GPYGANMEDSVCCRDYVRYRLPLRVVKHFYWTSDSCPRPGVVLLTFRDKEICADPRVPWVKMILNKLSQ

# Variants of: B1
# SETTINGS: with CCL22 (biotinylated, synthetic); scale: log2
Listing of entries alongside the reported enrichment.

{"VARIANT DESCRIPTOR": "chain 1 C13K", "enrichment": -9.12}
{"VARIANT DESCRIPTOR": "chain 1 Y5G", "enrichment": -7.11}
{"VARIANT DESCRIPTOR": "chain 1 P10K", "enrichment": -6.96}
{"VARIANT DESCRIPTOR": "chain 1 E2R", "enrichment": -7.13}
{"VARIANT DESCRIPTOR": "chain 1 D4R", "enrichment": -7.09}
{"VARIANT DESCRIPTOR": "chain 1 P10S", "enrichment": -9.19}
{"VARIANT DESCRIPTOR": "chain 1 D4C", "enrichment": -9.24}
